Measured hERG current change (%, negative = inhibition) at 1uM accompanies every entry in the list below.
# Measured target: human ether-à-go-go-related gene (hERG) potassium channel (human, UniProt Q12809)
# Sequence (Q12809 whole entry, looked up): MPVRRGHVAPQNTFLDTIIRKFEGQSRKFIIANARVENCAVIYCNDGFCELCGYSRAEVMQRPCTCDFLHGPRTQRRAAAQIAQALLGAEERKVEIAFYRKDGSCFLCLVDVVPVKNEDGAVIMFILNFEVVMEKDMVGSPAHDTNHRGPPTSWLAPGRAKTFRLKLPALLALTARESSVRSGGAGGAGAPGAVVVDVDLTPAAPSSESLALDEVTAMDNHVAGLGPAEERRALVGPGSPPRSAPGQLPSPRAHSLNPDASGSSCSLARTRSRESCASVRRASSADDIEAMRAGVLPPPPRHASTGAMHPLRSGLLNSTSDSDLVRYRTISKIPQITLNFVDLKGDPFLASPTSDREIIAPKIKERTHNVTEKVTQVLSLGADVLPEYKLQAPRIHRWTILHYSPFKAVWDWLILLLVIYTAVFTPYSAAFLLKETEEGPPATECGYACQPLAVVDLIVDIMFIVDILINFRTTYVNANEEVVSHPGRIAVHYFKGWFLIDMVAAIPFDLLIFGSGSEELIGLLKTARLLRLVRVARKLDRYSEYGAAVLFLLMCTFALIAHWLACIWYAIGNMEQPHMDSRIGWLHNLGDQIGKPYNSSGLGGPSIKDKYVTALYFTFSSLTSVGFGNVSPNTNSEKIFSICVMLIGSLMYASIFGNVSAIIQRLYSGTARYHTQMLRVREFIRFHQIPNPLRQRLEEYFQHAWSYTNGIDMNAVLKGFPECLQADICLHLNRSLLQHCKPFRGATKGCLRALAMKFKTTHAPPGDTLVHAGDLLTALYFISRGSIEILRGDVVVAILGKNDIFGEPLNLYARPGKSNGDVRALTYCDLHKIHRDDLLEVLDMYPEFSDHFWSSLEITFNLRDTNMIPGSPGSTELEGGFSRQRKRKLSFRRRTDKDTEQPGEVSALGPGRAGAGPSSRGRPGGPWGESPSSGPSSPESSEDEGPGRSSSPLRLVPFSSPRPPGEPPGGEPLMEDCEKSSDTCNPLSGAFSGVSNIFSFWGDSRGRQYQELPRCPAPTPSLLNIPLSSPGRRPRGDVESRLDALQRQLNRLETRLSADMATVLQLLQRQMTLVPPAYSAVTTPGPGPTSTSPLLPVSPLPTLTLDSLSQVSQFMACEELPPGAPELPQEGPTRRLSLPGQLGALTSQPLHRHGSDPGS
# Experiment description: primary screen, population patch clamp on CHO cells stably expressing hERG; higher = less effect of the substance
Out of some 310,000 compounds screened, about 2,200 (0.71%) showed an effect of 50% or more. The effect is printed as a negative number. The full list was thinned out, with strong results kept by preference.
Reported property: hERG current change (%, negative = inhibition) at 1uM (%)

Compound: CCOc1ccc(-c2nc(CN3CCCC(C(=O)N4CCOCC4)C3)c(C)o2)cc1 (stereo not drawn)
Measured target: human ether-à-go-go-related gene (hERG) potassium channel (human, UniProt Q12809)
Meas value: -5.79
//
Compound: Cc1ccc(CN2CCN(CCCn3cccn3)CC2CCO)cc1 (stereo not drawn)
Measured target: human ether-à-go-go-related gene (hERG) potassium channel (human, UniProt Q12809)
Meas value: -23.7
//
Compound: CCOc1ccc(CN(C)CC(=O)NCc2ccc(F)cc2)cc1
Measured target: human ether-à-go-go-related gene (hERG) potassium channel (human, UniProt Q12809)
Meas value: -78.6
//
Compound: OCCC1CN(Cc2ccc(F)cc2)CCN1CCc1ccccc1 (stereo not drawn)
Measured target: human ether-à-go-go-related gene (hERG) potassium channel (human, UniProt Q12809)
Meas value: -48
//
Compound: COc1cccc(CN(C)CC(=O)NCc2ccccc2Cl)c1OC
Measured target: human ether-à-go-go-related gene (hERG) potassium channel (human, UniProt Q12809)
Meas value: 10.6
//
Compound: CC(=O)c1ccc(NC(=O)Cc2ccsc2)cc1
Measured target: human ether-à-go-go-related gene (hERG) potassium channel (human, UniProt Q12809)
Meas value: 14.1
//
Compound: CC1CCc2c(sc3c2C2=NS(=O)(=O)CCN2C=N3)C1 (stereo not drawn)
Measured target: human ether-à-go-go-related gene (hERG) potassium channel (human, UniProt Q12809)
Meas value: 15
//
Compound: COc1ccc(-c2nc(CN3CCCC(C(=O)NC4CCCC4)C3)c(C)o2)cc1 (stereo not drawn)
Measured target: human ether-à-go-go-related gene (hERG) potassium channel (human, UniProt Q12809)
Meas value: -53.5
//
Compound: OCCC1CN(CCCn2cccn2)CCN1Cc1ccccc1 (stereo not drawn)
Measured target: human ether-à-go-go-related gene (hERG) potassium channel (human, UniProt Q12809)
Meas value: 8.59
//
Compound: CCOC(=O)N1CCC(NC(=O)C2CCCN(Cc3nc(-c4cccc(C)c4)oc3C)C2)CC1 (stereo not drawn)
Measured target: human ether-à-go-go-related gene (hERG) potassium channel (human, UniProt Q12809)
Meas value: -24.2
//
Compound: COc1cccc(CN(C)CC(=O)NCc2ccccc2Cl)c1
Measured target: human ether-à-go-go-related gene (hERG) potassium channel (human, UniProt Q12809)
Meas value: 14.6
//
Compound: COc1cc(/C=C2/C(=O)NN(c3ccc(F)cc3)C2=O)cc([N+](=O)[O-])c1O
Measured target: human ether-à-go-go-related gene (hERG) potassium channel (human, UniProt Q12809)
Meas value: 8.07
//
Compound: COc1cc(CN2CCN(CCCc3ccccc3)CC2CCO)cc(OC)c1 (stereo not drawn)
Measured target: human ether-à-go-go-related gene (hERG) potassium channel (human, UniProt Q12809)
Meas value: -46.8
//
Compound: CCOc1ccc(CN(C)CC(=O)NCc2ccccc2Cl)cc1
Measured target: human ether-à-go-go-related gene (hERG) potassium channel (human, UniProt Q12809)
Meas value: -73.6
//
Compound: CCOC(=O)N1CCN(C(=O)C2CCCN(Cc3nc(-c4ccc(Cl)cc4)oc3C)C2)CC1 (stereo not drawn)
Measured target: human ether-à-go-go-related gene (hERG) potassium channel (human, UniProt Q12809)
Meas value: -57.7
//
Compound: COc1cccc(CN2CCN(CCCc3ccccc3)C(CCO)C2)c1O (stereo not drawn)
Measured target: human ether-à-go-go-related gene (hERG) potassium channel (human, UniProt Q12809)
Meas value: -41.8
//
Compound: Cc1oc(-c2ccc(Cl)cc2)nc1CN1CCCC(C(=O)N2CCOCC2)C1 (stereo not drawn)
Measured target: human ether-à-go-go-related gene (hERG) potassium channel (human, UniProt Q12809)
Meas value: -32.9
//
Compound: CCOC(=O)N1CCC(NC(=O)C2CCCN(Cc3nc(-c4cccc(Cl)c4)oc3C)C2)CC1 (stereo not drawn)
Measured target: human ether-à-go-go-related gene (hERG) potassium channel (human, UniProt Q12809)
Meas value: -50.4
//
Compound: CCOc1ccc2[nH]c3c(N4CCN(C(=O)c5ccco5)CC4)ncnc3c2c1
Measured target: human ether-à-go-go-related gene (hERG) potassium channel (human, UniProt Q12809)
Meas value: -3.41
//
Compound: CCOC(=O)N1CCC(NC(=O)C2CCCN(Cc3nc(-c4ccc(CC)cc4)oc3C)C2)CC1 (stereo not drawn)
Measured target: human ether-à-go-go-related gene (hERG) potassium channel (human, UniProt Q12809)
Meas value: -39.3
//
Compound: Cc1oc(-c2ccc(Cl)cc2)nc1CN1CCCC(C(=O)NC2CC2)C1 (stereo not drawn)
Measured target: human ether-à-go-go-related gene (hERG) potassium channel (human, UniProt Q12809)
Meas value: -18.2

====

# Measured target: human ether-à-go-go-related gene (hERG) potassium channel (human)
# Experiment description: primary screen, population patch clamp on CHO cells stably expressing hERG; higher = less effect of the substance
Out of some 310,000 compounds screened, about 2,200 (0.71%) showed an effect of 50% or more. Effects have a minus sign here. The entries come from a sample that favours strong results as a whole.
Reported property: hERG current change (%, negative = inhibition) at 1uM (%)

Cpd smiles: CCOc1ccc(CSC(=N)N)cc1[N+](=O)[O-].Cl
Measured target: human ether-à-go-go-related gene (hERG) potassium channel (human)
Meas value: -50.3
//
Cpd smiles: COc1ccc(CSC2=NCCN2)cc1Cl.Cl
Measured target: human ether-à-go-go-related gene (hERG) potassium channel (human)
Meas value: -7.52
//
Cpd smiles: CCCCOc1ccc(CSc2nnc(C)n2N)cc1[N+](=O)[O-]
Measured target: human ether-à-go-go-related gene (hERG) potassium channel (human)
Meas value: -2.42
//
Cpd smiles: COc1ccc(CSC2=NCCN2)cc1Br
Measured target: human ether-à-go-go-related gene (hERG) potassium channel (human)
Meas value: 10.8
//
Cpd smiles: Br.O=[N+]([O-])c1ccc(CSC2=NCCN2)cc1
Measured target: human ether-à-go-go-related gene (hERG) potassium channel (human)
Meas value: 8.87
//
Cpd smiles: CCCCCOc1ccc(CSC2=NCCN2)cc1[N+](=O)[O-]
Measured target: human ether-à-go-go-related gene (hERG) potassium channel (human)
Meas value: -60
